assayed_system: T1, human IFNAR-1 protein (form not stated) (human, UniProt P17181 28-436, limits assumed)
T1 construct: bispecific ELISA
T1 sequence (looked up): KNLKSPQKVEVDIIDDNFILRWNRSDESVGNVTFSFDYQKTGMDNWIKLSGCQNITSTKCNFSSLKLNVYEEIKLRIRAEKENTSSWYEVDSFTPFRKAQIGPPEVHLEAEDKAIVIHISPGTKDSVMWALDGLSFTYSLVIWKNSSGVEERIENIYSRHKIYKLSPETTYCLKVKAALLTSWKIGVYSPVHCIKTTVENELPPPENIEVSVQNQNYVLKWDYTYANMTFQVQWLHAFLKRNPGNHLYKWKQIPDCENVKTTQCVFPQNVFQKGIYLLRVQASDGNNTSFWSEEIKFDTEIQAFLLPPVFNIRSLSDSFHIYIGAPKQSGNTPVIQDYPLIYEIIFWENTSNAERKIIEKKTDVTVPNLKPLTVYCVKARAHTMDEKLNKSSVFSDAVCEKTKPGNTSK
protocol_details: affinity ranking of expressed humanized 8G11 IgGs (method not named)
readout_name: koff (s⁻¹)
Response body: numeric value in s⁻¹, unit text excluded.

| binder | recorded_number |
| --- | --- |
| 8G11 humanized VH3 + VL1 (antibody, V domains shown, Humanized IgG expressed in HEK293; also called VH3 + VL1 (8G11)) VH: QVQLVQSGAEVVKPGASVKVSCKGSGFNIKDYYMHWVKQAPGQGLEWIGRIDPEDAETKYAPKFQGRVTITADTSTSTVYLELSSLRSEDTAVYYCARGGNFYVMDYWGQGTLVTVSS VL: DIQLTQSPSFLSASVGDRVTITCKASQNVGTNVVWYQQKPGKAPKLLIYSASYRVSGVPSRFSGSGSGTEFTLTISSLQPEDFATYYCQQKNNYPYTFGQGTKLEIK | 0.000106 |
| 8G11 humanized VH1 + VL2 (antibody, V domains shown, Humanized IgG expressed in HEK293; also called VH1 + VL2 (8G11)) VH: QVQLVQSGAEVKKPGASVKVSCKASGFNIKDYYMHWVRQAPGQGLEWMGRIDPEDAETKYAPKFQGRVTMTRDTSTSTVYMELSSLRSEDTAVYYCARGGNFYVMDYWGQGTLVTVSS VL: DIQLTQSPSFLSTSVGDRVTITCKASQNVGTNVVWYQQKPGKSPKVLIYSASYRVSGVPSRFSGSGSGTEFTLIISSLQPEDFATYYCQQKNNYPYTFGQGTKLEIK | 0.000127 |

Then there is this binder:
Read the entry 8G11 humanized VH4 + VL4 (antibody, V domains shown, Humanized IgG expressed in HEK293; also called VH4 + VL4 (8G11)) VH: QVQLVQSGAEVVKPGASVKLSCKGSGFNIKDYYMHWVKQAPGQGLEWIGRIDPEDAETKYAPKFQGRATITADTSTSTAYLELSSLRSEDTAVYYCARGGNFYVMDYWGQGTLVTVSS VL: DIQMTQSPSFLSTSVGDRVTVTCKASQNVGTNVVWYQQKPGKSPKVLIYSASYRVSGVPSRFSGSGSGTEFTLIISSVQPEDFATYFCQQKNNYPYTFGQGTKLEIK and write its reported koff.
0.000105
